B1: Histone H1t, residues 44 to 112; numbered along this chain, P22492 (parent)
chain: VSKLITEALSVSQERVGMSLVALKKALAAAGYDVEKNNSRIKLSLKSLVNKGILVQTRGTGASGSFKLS

- Variants of: B1
- test.protocol: abundance fitness (aPCA) (normalised: wild type 0, dead -1); higher = more abundant; growth selection in yeast, the domain comes from the species named
- conditions: Homo sapiens
Returns one of Condition met or Condition not met; Condition met when abundance fitness is >= -0.2.

{"mutation": "G64H", "group.label": "Condition not met"}
{"mutation": "Y32N", "group.label": "Condition met"}
{"mutation": "N37M", "group.label": "Condition not met"}
{"mutation": "F66D", "group.label": "Condition met"}
{"mutation": "N50W", "group.label": "Condition not met"}

Determine whether this variant has abundance fitness no lower than -0.2: S65H
Condition met

Entry source: the Human Domainome abundance scans (Beltran et al. 2025)
